So I've got a bunch of molecules here, and I need their pIC50 values.
- Measured on: Met kinase (Homo sapiens)
- Method summary: Met kinase inhibition, biochemical assay (flashplate method)
- Parameters: 6His (N); purchased Upstate 14-526; host or cells: Sf21 insect cells (S. frugiperda), baculovirus
- Condition info: read-out: Biochemical assay IC50 (enzyme)
- Sequence (P08581 974-1390 limits assumed): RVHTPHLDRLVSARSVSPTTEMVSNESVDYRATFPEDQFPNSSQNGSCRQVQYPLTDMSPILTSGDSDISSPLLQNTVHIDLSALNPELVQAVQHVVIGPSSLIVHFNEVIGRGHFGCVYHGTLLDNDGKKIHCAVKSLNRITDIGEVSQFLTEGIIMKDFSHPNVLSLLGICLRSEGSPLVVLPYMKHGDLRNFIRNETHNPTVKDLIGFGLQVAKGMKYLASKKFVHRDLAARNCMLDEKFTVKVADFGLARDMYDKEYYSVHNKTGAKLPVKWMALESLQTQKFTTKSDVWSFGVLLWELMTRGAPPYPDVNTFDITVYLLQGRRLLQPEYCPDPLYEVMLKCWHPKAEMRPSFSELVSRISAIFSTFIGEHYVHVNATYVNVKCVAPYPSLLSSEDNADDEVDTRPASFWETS
pIC50: −log10 of the molar value. Where a name gives a salt, the structure may show the parent alone.

Fill in: Met kinase (Homo sapiens) pIC50 for `Cn1cc(-c2cnc3nnn(Cc4cccc(-c5ncc(OCCN6CCOCC6)cn5)c4)c3n2)cn1` = 7.00 to 9.00

Tested on Met kinase (Homo sapiens), the item CN(C)CCOc1cnc(-c2cccc(Cn3nnc4ncc(-c5cnn(C)c5)nc43)c2)nc1 [Compound B14, hydrochloride] showed pIC50 equal to 7.00 to 9.00

// molecule `N#Cc1cccc(Oc2cnc3nnn(Cc4cccc(-c5ncc(Br)cn5)c4)c3n2)c1` , assay Met kinase (Homo sapiens), pIC50 value: 7.00 to 9.00

Item `Brc1cnc(-c2cccc(Cn3nnc4ncc(Br)nc43)c2)nc1` was tested on Met kinase (Homo sapiens); the reported pIC50 is 7.00 to 9.00

Form: item `CN1CCN(CCOc2cnc(-c3cccc(Cn4nnc5ncc(-c6cnn(C)c6)nc54)c3)nc2)CC1=O` ; test system Met kinase (Homo sapiens); pIC50: 7.00 to 9.00

The molecule `Clc1ccc2nnn(Cc3cccc(-c4ncc(OCCN5CCOCC5)cn4)c3)c2n1` on Met kinase (Homo sapiens): pIC50 was 7.00 to 9.00

Result for `N#Cc1cccc(-c2cnc3nnn(Cc4cccc(-c5ncc(OCC6CCNCC6)cn5)c4)c3n2)c1` , tested on Met kinase (Homo sapiens), pIC50: 7.00 to 9.00

Form field, pIC50 with Met kinase (Homo sapiens), item `Cn1cc(-c2cnc3nnn(Cc4cccc(-c5ncc(OC6CCNCC6)cn5)c4)c3n2)cn1` : 7.00 to 9.00

// returns pIC50 for `O=[N+]([O-])c1ccc(Br)cc1NCc1cccc(-c2ncc(OCCN3CCOCC3)cn2)c1` with Met kinase (Homo sapiens); value = 7.00 to 9.00

Param item: `Cn1cc(-c2cnc3nnn(Cc4cccc(-c5ncc(OCC6CCNCC6)cn5)c4)c3n2)cn1` ; param system: Met kinase (Homo sapiens); output pIC50: 7.00 to 9.00

Per the reported Met kinase (Homo sapiens) data, `Fc1ccc2nnn(Cc3cccc(-c4ncc(OCCN5CCOCC5)cn4)c3)c2c1F` has pIC50 of 7.00 to 9.00

pIC50 value, target or system Met kinase (Homo sapiens), for `COc1ccc2nnn(Cc3cccc(-c4ncc(OCCCN(C)C)cn4)c3)c2n1` : 7.00 to 9.00

So the reported pIC50 for `N#Cc1cccc(-c2cnc3nnn(Cc4cccc(-c5ncc(OCCN6CCNCC6)cn5)c4)c3n2)c1` , on Met kinase (Homo sapiens), turned out to be 7.00 to 9.00

Field pIC50 (Met kinase (Homo sapiens)), entry `Fc1cc(F)cc(Oc2cnc3nnn(Cc4cccc(-c5ncc(Br)cn5)c4)c3n2)c1` : 7.00 to 9.00

# value of pIC50, Met kinase (Homo sapiens), item `Cn1cc(Oc2cnc3nnn(Cc4cccc(-c5ncc(Br)cn5)c4)c3n2)cn1` = 7.00 to 9.00

pIC50 on Met kinase (Homo sapiens) for `Clc1ccc2c(c1)nnn2Cc1cccc(-c2ncc(OCCN3CCOCC3)cn2)c1` is 5.00 to 7.00

The recorded pIC50 with Met kinase (Homo sapiens) for `N#Cc1cccc(-c2cnc3nnn(Cc4cccc(-c5ncc(OC6CCNCC6)cn5)c4)c3n2)c1` was 7.00 to 9.00

Readout pIC50 for Cn1cc(-c2cnc3nnn(Cc4cccc(-c5ncc(OCC6CNCCO6)cn5)c4)c3n2)cn1 (stereo not drawn) , test system Met kinase (Homo sapiens), was 7.00 to 9.00

`Oc1cnc(-c2cccc(Cn3nnc4ncc(-c5cc(F)cc(F)c5)nc43)c2)nc1` tested on Met kinase (Homo sapiens) gave pIC50: 7.00 to 9.00

Case `COCCOc1cnc(-c2cccc(Cn3nnc4ncc(-c5cnn(C)c5)nc43)c2)nc1` , Met kinase (Homo sapiens), pIC50 recorded as 7.00 to 9.00

Case `Cn1cc(-c2cnc3nnn(Cc4cccc(-c5ncc(OCCCO)cn5)c4)c3n2)cn1` , Met kinase (Homo sapiens), pIC50 recorded as 7.00 to 9.00

Noted pIC50 for Cn1cc(-c2cnc3nnn(Cc4cccc(-c5ncc(-c6cnn(CCN7CCCC7)c6)cn5)c4)c3n2)cn1 [Compound A24, hydrochloride] , tested on Met kinase (Homo sapiens): 7.00 to 9.00

Value sought: pIC50, system Met kinase (Homo sapiens), item `N#Cc1cccc(-c2cnc3nnn(Cc4cccc(-c5ncc(-c6cnn(CCN7CCCC7)c6)cn5)c4)c3n2)c1` . Result: 7.00 to 9.00

I looked up `c1cc(Cn2nnc3ccccc32)cc(-c2ncc(OCCN3CCOCC3)cn2)c1` and its pIC50 for Met kinase (Homo sapiens) was 7.00 to 9.00

Test item `Fc1cc(F)cc(-c2cnc3nnn(Cc4cccc(-c5ncc(OCC6CCNCC6)cn5)c4)c3n2)c1` ; Met kinase (Homo sapiens); reported pIC50 was 7.00 to 9.00

Kindly note: Met kinase (Homo sapiens), `Cn1cc(-c2cnc3nnn(Cc4cccc(-c5ncc(OCCCN6CCOCC6)cn5)c4)c3n2)cn1` , pIC50 value reported: 7.00 to 9.00

Item `Fc1cc(F)cc(-c2cnc3nnn(Cc4cccc(-c5ncc(OCCN6CCNCC6)cn5)c4)c3n2)c1` was tested on Met kinase (Homo sapiens); the reported pIC50 is 7.00 to 9.00

Result for `COCCn1cc(-c2cnc3nnn(Cc4cccc(-c5ncc(OCCN6CCOCC6)cn5)c4)c3n2)cn1` , tested on Met kinase (Homo sapiens), pIC50: 7.00 to 9.00

Value sought: pIC50, system Met kinase (Homo sapiens), item `OCCn1cc(-c2cnc3nnn(Cc4cccc(-c5ncc(OCCN6CCOCC6)cn5)c4)c3n2)cn1` . Result: 7.00 to 9.00

Case `CN1CCN(CCOc2cnc(-c3cccc(Cn4nnc5ncc(-c6cnn(C)c6)nc54)c3)nc2)CC1` , Met kinase (Homo sapiens), pIC50 recorded as 7.00 to 9.00

---

- Measured on: UniProt P08581
- Method summary: Met kinase inhibition, cellular assay
- Format: cell-based
- Condition info: read-out: Cellular assay IC50 (cell)
- Sequence (P08581 25-1390): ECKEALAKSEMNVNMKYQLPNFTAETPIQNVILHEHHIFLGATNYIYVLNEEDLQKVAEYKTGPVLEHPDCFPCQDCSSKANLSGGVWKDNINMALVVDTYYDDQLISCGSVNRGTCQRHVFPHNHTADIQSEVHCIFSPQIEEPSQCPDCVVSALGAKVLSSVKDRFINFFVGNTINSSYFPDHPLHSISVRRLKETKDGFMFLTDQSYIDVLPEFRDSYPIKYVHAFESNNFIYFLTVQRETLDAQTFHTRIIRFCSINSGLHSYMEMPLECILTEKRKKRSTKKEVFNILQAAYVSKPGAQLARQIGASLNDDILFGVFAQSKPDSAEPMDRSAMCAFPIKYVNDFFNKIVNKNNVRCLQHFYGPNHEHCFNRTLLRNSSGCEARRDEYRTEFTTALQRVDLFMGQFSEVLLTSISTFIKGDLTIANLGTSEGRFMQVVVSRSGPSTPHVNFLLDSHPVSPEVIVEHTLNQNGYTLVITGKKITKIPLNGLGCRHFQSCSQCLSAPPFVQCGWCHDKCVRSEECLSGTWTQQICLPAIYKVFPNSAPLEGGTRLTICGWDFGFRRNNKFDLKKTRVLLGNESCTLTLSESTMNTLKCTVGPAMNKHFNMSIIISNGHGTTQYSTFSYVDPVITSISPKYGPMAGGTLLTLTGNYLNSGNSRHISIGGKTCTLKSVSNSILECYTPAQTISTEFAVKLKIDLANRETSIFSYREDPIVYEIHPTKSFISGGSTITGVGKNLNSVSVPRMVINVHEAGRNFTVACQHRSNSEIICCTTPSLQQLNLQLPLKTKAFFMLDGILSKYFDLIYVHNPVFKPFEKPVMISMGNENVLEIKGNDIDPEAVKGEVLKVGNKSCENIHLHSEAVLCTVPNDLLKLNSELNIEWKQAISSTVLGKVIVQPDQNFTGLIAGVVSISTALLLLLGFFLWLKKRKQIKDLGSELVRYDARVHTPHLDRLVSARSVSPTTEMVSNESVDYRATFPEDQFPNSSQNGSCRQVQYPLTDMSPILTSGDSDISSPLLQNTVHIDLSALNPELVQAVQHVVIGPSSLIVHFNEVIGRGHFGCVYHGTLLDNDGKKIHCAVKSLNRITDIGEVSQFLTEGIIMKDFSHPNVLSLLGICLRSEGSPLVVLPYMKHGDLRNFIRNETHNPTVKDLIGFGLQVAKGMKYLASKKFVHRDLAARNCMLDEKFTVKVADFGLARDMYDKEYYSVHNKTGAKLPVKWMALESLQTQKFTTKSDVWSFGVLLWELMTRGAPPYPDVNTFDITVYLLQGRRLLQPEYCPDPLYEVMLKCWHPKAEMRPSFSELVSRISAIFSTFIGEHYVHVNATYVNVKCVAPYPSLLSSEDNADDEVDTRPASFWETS
Counter-ions that a name gives are not always drawn.
Property measured: IC50

The molecule Cn1cc(-c2cnc3nnn(Cc4cccc(-c5ncc(OCCN6CCOCC6)cn5)c4)c3n2)cn1 [Compound A2] showed IC50 equal to 1 to 100 nM

Lab book: IC50 of Cn1cc(-c2cnc3nnn(Cc4cccc(-c5ncc(OC6CCNCC6)cn5)c4)c3n2)cn1 [Compound A6] noted as 1 to 100 nM

Briefly, IC50 measured for Clc1ccc2c(c1)nnn2Cc1cccc(-c2ncc(OCCN3CCOCC3)cn2)c1 [Compound B35] : > 10000 nM

IC50 for N#Cc1cccc(-c2cnc3nnn(Cc4cccc(-c5ncc(OC6CCNCC6)cn5)c4)c3n2)c1 [Compound A27] is 1 to 100 nM

Recorded result, Fc1cc(F)cc(Oc2cnc3nnn(Cc4cccc(-c5ncc(Br)cn5)c4)c3n2)c1 [Compound B7] , IC50: 1 to 100 nM

The reported value for OCCn1cc(-c2cnc3nnn(Cc4cccc(-c5ncc(OCCN6CCOCC6)cn5)c4)c3n2)cn1 [Compound B34] in terms of IC50 is 1 to 100 nM

IC50 reported for this molecule N#Cc1cccc(-c2cnc3nnn(Cc4cccc(-c5ncc(OCCN6CCNCC6)cn5)c4)c3n2)c1 [Compound B22] : 1 to 100 nM

IC50 reported for this molecule O=[N+]([O-])c1ccc(Br)cc1NCc1cccc(-c2ncc(OCCN3CCOCC3)cn2)c1 [Compound B36] : 100 to 10000 nM

Value of IC50 reported for the molecule Oc1cnc(-c2cccc(Cn3nnc4ncc(-c5cc(F)cc(F)c5)nc43)c2)nc1 [Compound B10] is 1 to 100 nM

Given item COc1ccc2nnn(Cc3cccc(-c4ncc(OCCCN(C)C)cn4)c3)c2n1 [Compound B37] , the value recorded as its IC50 is 1 to 100 nM

IC50 reading for Cn1cc(-c2cnc3nnn(Cc4cccc(-c5ncc(-c6cnn(CCN7CCCC7)c6)cn5)c4)c3n2)cn1 [Compound A24, hydrochloride] : 1 to 100 nM

Entry Cn1cc(-c2cnc3nnn(Cc4cccc(-c5ncc(OCCCO)cn5)c4)c3n2)cn1 [Compound B15] , IC50 reported as 1 to 100 nM

Record summary for Fc1cc(F)cc(-c2cnc3nnn(Cc4cccc(-c5ncc(OCCN6CCNCC6)cn5)c4)c3n2)c1 [Compound B23] : reported IC50 = 1 to 100 nM

For COCCn1cc(-c2cnc3nnn(Cc4cccc(-c5ncc(OCCN6CCOCC6)cn5)c4)c3n2)cn1 [Compound B33] the molecule record lists IC50 as 1 to 100 nM

Entry Cn1cc(-c2cnc3nnn(Cc4cccc(-c5ncc(OCC6CCNCC6)cn5)c4)c3n2)cn1 [Compound A9] , IC50 reported as 1 to 100 nM

Short answer for Fc1cc(F)cc(-c2cnc3nnn(Cc4cccc(-c5ncc(OCC6CCNCC6)cn5)c4)c3n2)c1 [Compound B24] : IC50 was 1 to 100 nM
